The following molecules are listed with their measured Biodistribution, Spleen values.
system: SCID mice bearing twin HEK293-CCK2i4svR and wtHEK293 tumors; test: Biodistribution in SCID mice bearing twin HEK293-CCK2i4svR and wtHEK293 xenografts; format: in vivo; conditions: 24 h pi
Please provide the amount together with its unit, number first.

These recorded examples may help you get a feel for the data.
molecule: CC(C)(C)C(=O)CN1C(=O)[C@H](NC(=O)Nc2cccc(C(=O)NCCOCCOCCOCCNC(=O)[C@H](CCC(=O)O)NC(=O)CCC(C(=O)O)N3CCN(CC(=O)[O-])CCN(CC(=O)[O-])CCN(CC(=O)[O-])CC3)c2)CN(C2CCCCC2)c2ccccc21.[67Ga+3] (stereo in doubt) [[^67Ga]Ga-GAS3]
Biodistribution, Spleen: 1.67 ± 0.37 %IA/g
--
molecule: CC(C)(C)C(=O)CN1C(=O)[C@H](NC(=O)Nc2cccc(C(=O)NCCOCCOCCOCCNC(=O)[C@H](CCC(=O)O)NC(=O)CN3CCN(CC(=O)[O-])CCN(CC(=O)[O-])CCN(CC(=O)[O-])CC3)c2)CN(C2CCCCC2)c2ccccc21.[111In+3] (stereo in doubt) [[^111In]In-GAS1]
Biodistribution, Spleen: 0.64 ± 0.12 %IA/g
--
molecule: CC(C)(C)C(=O)CN1C(=O)[C@H](NC(=O)Nc2cccc(C(=O)NCCOCCOCCOCCNC(=O)[C@H](CCC(=O)O)NC(=O)CCC(C(=O)O)N3CCN(CC(=O)[O-])CCN(CC(=O)[O-])CCN(CC(=O)[O-])CC3)c2)CN(C2CCCCC2)c2ccccc21.[177Lu+3] (stereo in doubt) [[^177Lu]Lu-GAS3]
Biodistribution, Spleen: 0.45 ± 0.05 %IA/g

Next item in the queue.
-- ask Report Biodistribution, Spleen on SCID mice bearing twin HEK293-CCK2i4svR and wtHEK293 tumors for this entry: CC(C)(C)C(=O)CN1C(=O)[C@H](NC(=O)Nc2cccc(C(=O)NCCOCCOCCOCCNC(=O)[C@H](CCC(=O)O)NC(=O)CN3CCN(CC(=O)[O-])CCN(CC(=O)[O-])CCN(CC(=O)[O-])CC3)c2)CN(C2CCCCC2)c2ccccc21.[177Lu+3] (stereo in doubt) [[^177Lu]Lu-GAS1]
-- reply 0.32 ± 0.01 %IA/g
